# credit: patent US6890952B2

I'd be grateful if you could share measured melting point for these entries.

compound=CN(C)CC1=C(Cc2ccc(Cl)cc2Cl)c2ccccc2CC1.Cl result="208 to 209 °C"
compound=CN(C)CC1=C(Cc2ccc(Cl)cc2)c2ccccc2CCC1.Cl result="240 to 243 °C"
compound="CN(C)CC1=C(Cc2ccc(Cl)cc2)c2cccc(O)c2CC1.Cl [Example 4c]" result="136 to 139 °C"

Here is another compound to look at.
Task: Consider the compound shown here: "CN(C)CC1=C(Cc2ccc(Cl)cc2)c2ccc(O)cc2CC1.Cl" What is its recorded melting point?
Result: 110 °C (dec.)
